Tested on: THP‐1 cells
Experiment: THP-1 cytotoxicity (MTT, PMA-differentiated macrophages)
Type: cell-based, human
Conditions: 48 h, mean ± SD
Procedure: The synthesized compounds were tested for their antileishmanial activity against promastigotes of L. major and L. infantum at four concentrations (1, 10, 50, and 100 µM) for 48 h using the 3‐(4,5‐dimethylthiazol‐2‐yl)‐2,5‐diphenyltetrazolium bromide (MTT) assay. […] The selectivity indexes (SIs) were calculated as the ratio between toxicity on macrophages (THP‐1 cells)/antileishmanial activity. […]
PARAMETER: CC50

Quick one: give measured CC50 for O=C(C[Se]C(=O)c1ccccc1)Nc1cccc(OC(F)(F)F)c1 [Compound 3]
> 200 µM

* * *

Tested on: NSCL (non‐small‐cell lung cancer) subpanel
Assay: NCI-60 one-dose screen, NSCL subpanel
Type: cell-based, human
Conditions: 10 µM, 48 h
PARAMETER: average growth cell value, NSCL
State the value with its unit after it.

Specify the recorded average growth cell value, NSCL for "O=C(C[Se]C(=O)c1ccco1)Nc1cccc(OC(F)(F)F)c1" , system: NSCL (non‐small‐cell lung cancer) subpanel.
-12.41%

Specify the recorded average growth cell value, NSCL for "N#Cc1ccc(NC(=O)C[Se]C(=O)c2ccco2)cc1C(F)(F)F" , system: NSCL (non‐small‐cell lung cancer) subpanel.
-37.92%

Specify the recorded average growth cell value, NSCL for "O=C(C[Se]C(=O)c1ccccc1)Nc1ccc([N+](=O)[O-])c(C(F)(F)F)c1" , system: NSCL (non‐small‐cell lung cancer) subpanel.
-96.34%

Specify the recorded average growth cell value, NSCL for "O=C(C[Se]C(=O)c1ccccc1)Nc1cccc(OC(F)(F)F)c1" , system: NSCL (non‐small‐cell lung cancer) subpanel.
-57.44%

Specify the recorded average growth cell value, NSCL for "O=C(C[Se]C(=O)c1ccco1)Nc1ccc([N+](=O)[O-])c(C(F)(F)F)c1" , system: NSCL (non‐small‐cell lung cancer) subpanel.
-42.46%

Specify the recorded average growth cell value, NSCL for "N#Cc1ccc(NC(=O)C[Se]C(=O)c2ccccc2)cc1C(F)(F)F" , system: NSCL (non‐small‐cell lung cancer) subpanel.
-96.68%

* * *

Assign GI50 to each entry below.
State the answer as a number, implicitly in nM.

Specify the recorded GI50 for O=C(C[Se]C(=O)c1ccccc1)Nc1cccc(OC(F)(F)F)c1 [Compound 3] , system: Renal subpanel.
2330

Specify the recorded GI50 for O=C(C[Se]C(=O)c1ccco1)Nc1ccc([N+](=O)[O-])c(C(F)(F)F)c1 [Compound 5] , system: Renal subpanel.
2200

Specify the recorded GI50 for O=C(C[Se]C(=O)c1ccccc1)Nc1ccc([N+](=O)[O-])c(C(F)(F)F)c1 [Compound 2] , system: Renal subpanel.
1380

Specify the recorded GI50 for N#Cc1ccc(NC(=O)C[Se]C(=O)c2ccco2)cc1C(F)(F)F [Compound 4] , system: Renal subpanel.
1920

Specify the recorded GI50 for O=C(C[Se]C(=O)c1ccco1)Nc1cccc(OC(F)(F)F)c1 [Compound 6] , system: Renal subpanel.
5620

Specify the recorded GI50 for N#Cc1ccc(NC(=O)C[Se]C(=O)c2ccccc2)cc1C(F)(F)F [Compound 1] , system: Renal subpanel.
1570

* * *

Assign pKi to each entry below.
The quantity pKi is defined as the negative base-10 logarithm of the molar concentration.

Specify the recorded pKi for O=C(C[Se]C(=O)c1ccco1)Nc1cccc(OC(F)(F)F)c1 [Compound 6] , system: hCA IX (Homo sapiens, UniProt Q16790).
4.44

Specify the recorded pKi for N#Cc1ccc(NC(=O)C[Se]C(=O)c2ccco2)cc1C(F)(F)F [Compound 4] , system: hCA IX (Homo sapiens, UniProt Q16790).
4.72

Specify the recorded pKi for N#Cc1ccc(NC(=O)C[Se]C(=O)c2ccccc2)cc1C(F)(F)F [Compound 1] , system: hCA IX (Homo sapiens, UniProt Q16790).
4.24

Specify the recorded pKi for O=C(C[Se]C(=O)c1ccco1)Nc1ccc([N+](=O)[O-])c(C(F)(F)F)c1 [Compound 5] , system: hCA IX (Homo sapiens, UniProt Q16790).
4.68

Specify the recorded pKi for O=C(C[Se]C(=O)c1ccccc1)Nc1cccc(OC(F)(F)F)c1 [Compound 3] , system: hCA IX (Homo sapiens, UniProt Q16790).
4.10

Specify the recorded pKi for O=C(C[Se]C(=O)c1ccccc1)Nc1ccc([N+](=O)[O-])c(C(F)(F)F)c1 [Compound 2] , system: hCA IX (Homo sapiens, UniProt Q16790).
4.12

* * *

Tested on: L. major promastigotes
Assay: Leishmanicidal activity against promastigotes (MTT), L. major
Assay type: cell-based, Leishmania major
Conditions: Leishmania major, 48 h, mean ± SD, read-out: L. major IC50
PARAMETER: IC50 (µM)
State the answer as a number, implicitly in µM.

Quick one: give measured IC50 for N#Cc1ccc(NC(=O)C[Se]C(=O)c2ccco2)cc1C(F)(F)F [Compound 4]
26.5

Quick one: give measured IC50 for O=C(C[Se]C(=O)c1ccccc1)Nc1ccc([N+](=O)[O-])c(C(F)(F)F)c1 [Compound 2]
27.1

Quick one: give measured IC50 for N#Cc1ccc(NC(=O)C[Se]C(=O)c2ccccc2)cc1C(F)(F)F [Compound 1]
26.6

Quick one: give measured IC50 for O=C(C[Se]C(=O)c1ccco1)Nc1ccc([N+](=O)[O-])c(C(F)(F)F)c1 [Compound 5]
18.3

* * *

Test system: Melanoma subpanel
PARAMETER: GI50

Quick one: give measured GI50 for "O=C(C[Se]C(=O)c1ccco1)Nc1cccc(OC(F)(F)F)c1"
4950 nM

Quick one: give measured GI50 for "O=C(C[Se]C(=O)c1ccccc1)Nc1ccc([N+](=O)[O-])c(C(F)(F)F)c1"
1240 nM

Quick one: give measured GI50 for "N#Cc1ccc(NC(=O)C[Se]C(=O)c2ccco2)cc1C(F)(F)F"
1440 nM

Quick one: give measured GI50 for "N#Cc1ccc(NC(=O)C[Se]C(=O)c2ccccc2)cc1C(F)(F)F"
1360 nM

Quick one: give measured GI50 for "O=C(C[Se]C(=O)c1ccccc1)Nc1cccc(OC(F)(F)F)c1"
2330 nM

Quick one: give measured GI50 for "O=C(C[Se]C(=O)c1ccco1)Nc1ccc([N+](=O)[O-])c(C(F)(F)F)c1"
1700 nM

* * *

PARAMETER: GI50 (nM)
State the answer as a number, implicitly in nM.

Specify the recorded GI50 for O=C(C[Se]C(=O)c1ccco1)Nc1ccc([N+](=O)[O-])c(C(F)(F)F)c1 [Compound 5] , system: Breast subpanel.
2010

Specify the recorded GI50 for O=C(C[Se]C(=O)c1ccco1)Nc1cccc(OC(F)(F)F)c1 [Compound 6] , system: Breast subpanel.
3080

Specify the recorded GI50 for O=C(C[Se]C(=O)c1ccccc1)Nc1cccc(OC(F)(F)F)c1 [Compound 3] , system: Breast subpanel.
2620

Specify the recorded GI50 for N#Cc1ccc(NC(=O)C[Se]C(=O)c2ccccc2)cc1C(F)(F)F [Compound 1] , system: Breast subpanel.
1610

Specify the recorded GI50 for O=C(C[Se]C(=O)c1ccccc1)Nc1ccc([N+](=O)[O-])c(C(F)(F)F)c1 [Compound 2] , system: Breast subpanel.
1480

Specify the recorded GI50 for N#Cc1ccc(NC(=O)C[Se]C(=O)c2ccco2)cc1C(F)(F)F [Compound 4] , system: Breast subpanel.
1720

* * *

Measured pKi (hCA XII (Homo sapiens))
The quantity pKi is defined as the negative base-10 logarithm of the molar concentration.

Quick one: give measured pKi for "O=C(C[Se]C(=O)c1ccco1)Nc1ccc([N+](=O)[O-])c(C(F)(F)F)c1"
4.14

Quick one: give measured pKi for "O=C(C[Se]C(=O)c1ccccc1)Nc1ccc([N+](=O)[O-])c(C(F)(F)F)c1"
4.04

Quick one: give measured pKi for "N#Cc1ccc(NC(=O)C[Se]C(=O)c2ccco2)cc1C(F)(F)F"
4.11

Quick one: give measured pKi for "N#Cc1ccc(NC(=O)C[Se]C(=O)c2ccccc2)cc1C(F)(F)F"
4.29

Quick one: give measured pKi for "O=C(C[Se]C(=O)c1ccco1)Nc1cccc(OC(F)(F)F)c1"
5.02

Quick one: give measured pKi for "O=C(C[Se]C(=O)c1ccccc1)Nc1cccc(OC(F)(F)F)c1"
4.76

* * *

PARAMETER: GI50 (nM)
State the answer as a number, implicitly in nM.

Specify the recorded GI50 for "O=C(C[Se]C(=O)c1ccccc1)Nc1cccc(OC(F)(F)F)c1" , system: Leukemia subpanel.
3060

Specify the recorded GI50 for "N#Cc1ccc(NC(=O)C[Se]C(=O)c2ccco2)cc1C(F)(F)F" , system: Leukemia subpanel.
1870

Specify the recorded GI50 for "O=C(C[Se]C(=O)c1ccco1)Nc1cccc(OC(F)(F)F)c1" , system: Leukemia subpanel.
6450

Specify the recorded GI50 for "O=C(C[Se]C(=O)c1ccco1)Nc1ccc([N+](=O)[O-])c(C(F)(F)F)c1" , system: Leukemia subpanel.
2510

Specify the recorded GI50 for "N#Cc1ccc(NC(=O)C[Se]C(=O)c2ccccc2)cc1C(F)(F)F" , system: Leukemia subpanel.
1010

Specify the recorded GI50 for "O=C(C[Se]C(=O)c1ccccc1)Nc1ccc([N+](=O)[O-])c(C(F)(F)F)c1" , system: Leukemia subpanel.
900

src = paper PMC12676205
